tested on: DLD-1; test: NCI tumour cell line growth inhibition, 48 h
The source made the active and inactive calls. Rule as the data show it: active = GI50 up to about 1.1 µM and inactive = higher.
RESULT TYPE: GI50

COMPOUND	GI50
Nc1nc2c(ncn2CCOC(c2ccccc2)P(=O)(O)O)c(=O)[nH]1 (stereo not drawn)	> 100 µM (inactive)
[O-][S+]1C(=c2ccc(=C3Sc4ccccc4S3)cc2)Sc2ccccc21 (stereo not drawn)	27.4 µM (inactive)

# input for lookup
Item CC(=O)NC1C(O)CC(OCCCSCCN)(C(=O)O)OC1C(O)C(O)CO (stereo not drawn) has what recorded GI50?
> 100 µM (inactive)

* * *

test system: EKVX; assay: NCI tumour cell line growth inhibition, 48 h
Calls of active or inactive are those of the source. Rule as the data show it: active = GI50 up to about 1.1 µM and inactive = higher.
Kindly supply the reported GI50 values for the records listed here.

Would you please look over these solved cases?
COMPOUND	GI50
C[C@H](CCC(=O)NN)[C@H]1CC[C@H]2[C@@H]3CC[C@@H]4C[C@H](O)CC[C@]4(C)[C@H]3CC[C@]12C	43 µM (inactive)
CN1CC(c2ccccc2)C(O)(C2(c3ccccc3)CN(C)CC(c3ccccc3)C2=O)C(c2ccccc2)C1 (centres undefined)	> 100 µM (inactive)
Cc1c(C)c2c(c(N)c1C#N)C(=O)N(CCc1ccccc1)C2=O	> 100 µM (inactive)
CCc1cccc(C)c1NC(=O)C1=C(C)NC(C)=C(C(=O)Nc2c(C)cccc2CC)C1c1ccc2c(c1)OCO2	20.5 µM (inactive)
CC1(C)CC(=O)C(C(c2cccc(O)c2O)C2C(=O)CC(C)(C)CC2=O)C(=O)C1	> 100 µM (inactive)
COc1cc(/C=C2/SC(c3ccccc3)N(c3cccc([N+](=O)[O-])c3)C2=O)cc(OC)c1OC (centres undefined)	> 100 µM (inactive)
CC[C@@H]1NC(C(=O)OC)Cc2c1[nH]c1ccccc21 (some centres undefined)	> 100 µM (inactive)
O=c1[nH]c2nc[nH]c2c(=O)n1C1CCCCC1	> 100 µM (inactive)

Item COc1ccc2c(-c3csc(-c4c[nH]c5ccccc45)n3)c[nH]c2c1 has what recorded GI50?
1.37 µM (inactive)

* * *

test system: LOX IMVI; test: NCI tumour cell line growth inhibition, 48 h
The source made the active and inactive calls. Rule as the data show it: active = GI50 up to about 1.1 µM and inactive = higher.
Your answer must be one of the following: Yes = active, No = inactive

Consider the following illustrative entries.
COMPOUND	ASSAY SYSTEM	CLASS
COc1cc(/C=C/C(=N\NC(=S)NN)c2sc(NNC(C)=O)nc2C)ccc1O	LOX IMVI	No
CC(C)OC(=O)Nc1cccc(Cl)c1	LOX IMVI	No

Check the results log: what was the call for COc1cc2c3c(c1OC)-c1cc4c(cc1CC3(C#N)N(C(=O)c1ccccc1)CC2)OCO4 (stereo unspecified) ?
No

Check the results log: what was the call for CC(O)(CCCCCl)c1nc2ccccc2s1 (stereo unspecified) ?
No

Check the results log: what was the call for O=C1c2ccsc2-c2cccc3cccc1c23.O=C1c2sccc2-c2cccc3cccc1c23 ?
No

Check the results log: what was the call for O=C(c1cccc(C(=O)c2ccc3c4c(cccc24)C(=O)N(c2ccccc2)C3=O)c1)c1ccc2c3c(cccc13)C(=O)N(c1ccccc1)C2=O ?
No

Check the results log: what was the call for COc1ccccc1C1C(C(=O)Nc2ccccc2)=C(C)NC(C)=C1C(=O)Nc1ccccc1 ?
No

* * *

system: UACC-257; assay: NCI tumour cell line growth inhibition, 48 h
Active and inactive are the calls of the source. Cut-off read from the data, not from the text of the source: active = GI50 up to about 1.1 µM and inactive = higher.
Your answer must be one of the following: Y = active, N = inactive

MOLECULE	CLASS
CC(=O)O[C@H]1CC[C@@]2(C)C(=CC[C@@H]3[C@@H]2CC[C@]2(C)c4c(C)nn(-c5ccccc5)c4C[C@@H]32)C1	N
CN(CCO)/N=N/c1n[nH]cc1C(N)=O	N

Check the results log: what was the call for CC(=O)OC12c3ccccc3C(c3ccccc31)C1C(=O)N(Nc3ccccc3)C(=O)C12 (centres undefined) ?
N

Check the results log: what was the call for COc1ccc(/C=C(\C#N)c2ccccn2)cc1OC ?
N

Check the results log: what was the call for O=Cn1c2ccccc2c2ccccc21 ?
N

* * *

tested on: RPMI-8226; assay: NCI tumour cell line growth inhibition, 48 h
Activity calls are given as the source filed them. Rule as the data show it: active = GI50 up to about 1.1 µM and inactive = higher.
Your answer must be one of the following: Yes = active, No = inactive

Consider the following illustrative entries.
COMPOUND	ASSAY SYSTEM	CLASS
O=C(c1cc2c(C(F)(F)F)onc2c2ccccc12)C(F)(F)F	RPMI-8226	Yes
COC1CCC(O)C(/C=C/[N+](=O)[O-])C1 (stereo not drawn)	RPMI-8226	No
Nc1nc(-c2ccccc2/N=N/N2CCCC2)nc2ccccc12	RPMI-8226	No
CN(C)c1ccc(/C=C(\NC(=O)c2ccccc2)C2NC(Cc3c[nH]c4ccccc34)C(=O)O2)cc1 (stereo not drawn)	RPMI-8226	No
CC(=O)N1c2ccccc2C(C)(C)OC1C(Cl)(Cl)Cl (stereo not drawn)	RPMI-8226	No
COc1ccccc1C[C@@H]1OC2(C=CC(=O)CC2SC(=O)c2ccccc2)O[C@H]1Cc1ccccc1OC (stereo partly drawn)	RPMI-8226	Yes
O=[N+]([O-])c1cccc2c1[nH]c1c(-c3ccccc3)nccc12	RPMI-8226	No
CCOC(=O)c1nn2c(nc1=O)sc1ccc3ccccc3c12	RPMI-8226	No

Check the results log: what was the call for OCC#CCNCl ?
No

Check the results log: what was the call for c1cc(-c2cn3c(n2)SCC3)ccn1 ?
No

Check the results log: what was the call for CC1(C)CC(=O)C(C(c2cccc(O)c2O)C2C(=O)CC(C)(C)CC2=O)C(=O)C1 ?
No

* * *

system: ACHN; assay: NCI tumour cell line growth inhibition, 48 h
Calls of active or inactive are those of the source. No stated cut-off is given here; in the data, active = GI50 up to about 1.1 µM and inactive = higher.
Your answer must be one of the following: 1 (active), 0 (inactive)

COMPOUND	CLASS
Cc1nc(N)nc(N)c1-c1ccc(Cl)c(Cl)c1 [METOPRINE]	1
CC(C)C1OC23CCCCC2C(C#N)(C#N)C1(C#N)C(=N)O3 (stereo not drawn)	0
COc1ccc([C@H](NC(=O)c2ccccc2)[C@@H](O)C(=O)O[C@H]2C[C@@]3(O)C(OC(=O)c4ccccc4)C4[C@](C)(C(=O)[C@H](OC(C)=O)C(=C2C)C3(C)C)[C@@H](O)C[C@H]2OC[C@@]42OC(C)=O)cc1 (stereo partly drawn)	1
CSC1=N/C(=C\c2ccc(Cl)cc2)C(=O)N1CN1CCCCC1	0
CC(=O)N1c2ccccc2C(C)(C)OC1C(Cl)(Cl)Cl (stereo not drawn)	0
C=C(CCOC)CCC1CCCCC(CN(C)C)C1=O (stereo not drawn)	0

Check the results log: what was the call for CCOC(=O)C(C#N)(Cc1c[nH]c2ccccc12)NC(C)=O (stereo not drawn) ?
0

Check the results log: what was the call for O=S1(=O)OCCOS(=O)(=O)C1S(=O)(=O)c1cccc2ccccc12 ?
0

Check the results log: what was the call for CC(C)(C)NC1=NC(C(F)(F)F)(C(F)(F)F)NC(=O)N1 ?
0

Check the results log: what was the call for COc1ccc(/C=C(\NC(=O)c2ccccc2)C(=O)NN(C)c2ccnc3cc(Cl)ccc23)cc1OC ?
0

Check the results log: what was the call for CSc1c(C)[n+]([O-])c2cc(Cl)c(Cl)cc2[n+]1[O-] ?
0

Check the results log: what was the call for CN(C)CCC(C#N)(c1ccccc1)c1ccccc1 ?
0

* * *

Kindly supply the reported GI50 values for the records listed here.
tested on: IGROV-1; test: NCI tumour cell line growth inhibition, 48 h
Calls of active or inactive are those of the source. No stated cut-off is given here; in the data, active = GI50 up to about 1.1 µM and inactive = higher.

Would you please look over these solved cases?
COMPOUND	RESULT
COc1cc2nc(-c3ccccc3F)nc(O)c2cc1OC	> 100 µM (inactive)
O=C1C(c2ccccc2)=C(c2ccccc2)C(c2ccc(CCCCCCc3ccc(C4=C(c5ccccc5)C(=O)C(c5ccccc5)=C4c4ccccc4)cc3)cc2)=C1c1ccccc1	> 100 µM (inactive)
COc1ccc(NC(/C(C(=O)c2ccccc2)=C(\O)C(=O)/C=C(\O)c2ccccc2)c2ccc(OC)cc2)cc1 (centres undefined)	35 µM (inactive)
ClCCN(CCCl)c1ccc(CNCCCNCc2ccc(N(CCCl)CCCl)cc2)cc1	1.92 µM (inactive)
COc1ccc(/C=C(\C#N)c2ccccn2)cc1OC	51.2 µM (inactive)
CC(=O)Oc1ccc2c(c1)c1c(=O)oc(N(C)C)nc1n2Cc1ccccc1	> 95.1 µM (inactive)
C[C@@H]1CC[C@@H]2[C@@H](C1)O[C@@H]([C@@H](C)OCc1ccccc1)SC2(C)C	23.1 µM (inactive)
COC(=O)c1sc2c(c1C(=O)OC)/C(=N/C(C)(C)C)S/C2=N\C(C)(C)C	19.6 µM (inactive)

# input for lookup
Item CC(C)C1=C(Cc2ccccc2)C(=O)O/C1=C\c1cc(Cl)c(O)c(Cl)c1 has what recorded GI50?
19.4 µM (inactive)

* * *

test system: 786-0; test: NCI tumour cell line growth inhibition, 48 h
Activity calls are given as the source filed them. No stated cut-off is given here; in the data, active = GI50 up to about 1.1 µM and inactive = higher.
Your answer must be one of the following: label 1 = active, label 0 = inactive

Consider the following illustrative entries.
COMPOUND	CLASS
O=C1NC2ON=C(c3ccccc3)C2C2ON=C(c3ccccc3)N12 (stereo not given)	label 0
Cc1c(C)c2c(c(N)c1C#N)C(=O)N(CCc1ccccc1)C2=O	label 0
C=CCN1C(=O)/C(=C/c2ccc(OC)cc2)N=C1SC/C=C/C	label 0
COC(=O)c1sc2c(c1C(=O)OC)/C(=N/C(C)(C)C)S/C2=N\C(C)(C)C	label 0
CN(C)C(=S)/N=c1\sn(C)/c(=N\C(=S)N(C)C)n1C	label 0

# ---- query compound ----
Check the results log: what was the call for Cc1n[nH]c(=O)c2cc(-c3ccccc3)[nH]c12 ?
label 0
